Target: Calf polymerase alpha (Bos taurus, UniProt A0AAA9TD94)
Construct: purchased Replizyme Ltd (Heslington, York, UK)
Assay: Calf polymerase alpha inhibition (Replizyme kit)
Format: biochemical
Details: at 10 μM, single point screening
// % Inhibition lookup, one value per entry
quantity: % Inhibition

* Cc1ccc(NC(=O)[C@H](CCCCN)NC(=O)Nc2ccc(-c3ccccc3)cc2)cc1 [Compound 40] | 95%
* CC(=O)NCCCC[C@H](NC(=O)OCC1c2ccccc2-c2ccccc21)C(=O)Nc1ccc(C)cc1 [Compound 181] | 18.5%
* Cc1ccc(NC(=O)[C@H](CCCCN)NC(=O)Nc2cccc(OCc3ccccc3)c2)cc1 [Compound 204] | 94%
* Cc1ccc(NC(=O)[C@H](CCCCNC(=O)CN)NC(=O)OCC2c3ccccc3-c3ccccc32)cc1 [Compound 176] | 68%
* Cc1ccc(NC(=O)[C@H](CCCCN)NS(=O)(=O)c2ccc(-c3ccccc3)cc2)cc1 [Compound 70] | 50%
* Cc1ccc(NC(=O)[C@H](CCCCN)NC(=O)CC2c3ccccc3-c3ccccc32)cc1 [Compound 53] | 22%
* Cc1ccc(NC(=O)[C@H](CCCCN)NC(=O)Nc2ccc(NCc3ccc(F)cc3)cc2)cc1 [Compound 225] | 62%

###

Target: Calf polymerase alpha (Bos taurus, UniProt A0AAA9TD94)
Sequence (A0AAA9TD94 1-1441): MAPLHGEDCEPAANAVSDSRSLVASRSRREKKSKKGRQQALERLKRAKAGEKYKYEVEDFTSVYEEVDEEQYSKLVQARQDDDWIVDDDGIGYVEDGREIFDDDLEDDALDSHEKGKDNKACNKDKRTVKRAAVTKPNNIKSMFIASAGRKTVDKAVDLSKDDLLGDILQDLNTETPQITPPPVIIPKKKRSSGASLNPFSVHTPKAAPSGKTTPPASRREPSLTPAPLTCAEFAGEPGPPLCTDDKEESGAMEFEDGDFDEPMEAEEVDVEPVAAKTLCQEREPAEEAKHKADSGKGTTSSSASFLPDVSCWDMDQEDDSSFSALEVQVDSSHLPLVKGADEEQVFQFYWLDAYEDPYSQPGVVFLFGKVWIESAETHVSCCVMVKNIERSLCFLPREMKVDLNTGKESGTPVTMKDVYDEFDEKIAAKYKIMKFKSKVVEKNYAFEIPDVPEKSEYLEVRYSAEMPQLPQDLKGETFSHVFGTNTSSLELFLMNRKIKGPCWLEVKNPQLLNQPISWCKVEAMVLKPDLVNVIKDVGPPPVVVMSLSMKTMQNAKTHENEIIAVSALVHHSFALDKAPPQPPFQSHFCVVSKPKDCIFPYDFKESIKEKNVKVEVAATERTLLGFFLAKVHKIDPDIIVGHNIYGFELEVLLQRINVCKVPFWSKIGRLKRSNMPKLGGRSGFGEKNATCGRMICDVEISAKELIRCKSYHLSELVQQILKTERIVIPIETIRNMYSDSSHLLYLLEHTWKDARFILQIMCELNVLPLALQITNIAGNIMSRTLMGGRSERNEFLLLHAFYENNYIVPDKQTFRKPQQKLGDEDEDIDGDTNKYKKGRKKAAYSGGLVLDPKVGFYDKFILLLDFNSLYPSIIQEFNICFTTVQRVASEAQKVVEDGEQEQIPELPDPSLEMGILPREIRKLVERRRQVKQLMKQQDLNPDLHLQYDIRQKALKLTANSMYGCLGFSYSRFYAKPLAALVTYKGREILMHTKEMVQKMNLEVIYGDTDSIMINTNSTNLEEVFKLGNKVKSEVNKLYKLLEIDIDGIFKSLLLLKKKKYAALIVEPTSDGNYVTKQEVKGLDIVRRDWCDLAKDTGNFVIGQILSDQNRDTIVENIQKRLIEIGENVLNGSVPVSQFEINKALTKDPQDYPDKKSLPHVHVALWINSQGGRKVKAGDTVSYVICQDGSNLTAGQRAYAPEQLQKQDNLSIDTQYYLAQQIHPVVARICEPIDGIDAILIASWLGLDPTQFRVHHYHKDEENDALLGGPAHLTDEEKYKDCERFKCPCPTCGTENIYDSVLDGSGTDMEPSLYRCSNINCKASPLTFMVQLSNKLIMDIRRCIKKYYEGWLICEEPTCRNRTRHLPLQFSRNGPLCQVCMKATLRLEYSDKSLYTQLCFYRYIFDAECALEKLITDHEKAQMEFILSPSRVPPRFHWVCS
pIC50: −log10 of the molar value.
Binary classification by pIC50, with 5 as an inclusive lower bound for Met; all other cases are Not met.

- Cc1cc2cc(NC(=O)[C@H](CCCNC(=O)CN)NC(=O)Nc3ccc4c(c3)Cc3ccccc3-4)ccc2[nH]1: Not met
- Cc1ccc(NC(=O)[C@H](CCCCN)NC(=O)CNc2ccc(Oc3ccccc3)cc2)cc1: Met
- CC1CCC(NC(=O)[C@H](CCCCN)NC(=O)Nc2ccc(OCc3ccccc3)cc2)CC1 (stereo partly drawn): Not met
- NCCCC[C@H](NC(=O)Nc1ccc(-c2ccccc2)cc1)C(=O)Nc1ccc(C2CCCCC2)cc1: Met
- NCCCC[C@H](NC(=O)Nc1ccc(OCc2ccccc2)cc1)C(=O)NCc1ccco1: Not met
- Cc1ccc(NC(=O)[C@H](CCCCN)NC(=O)Nc2ccc3c(c2)Cc2ccccc2-3)cc1: Met
- Cc1ccc(NC(=O)[C@H](CCCCN)NC(=O)Nc2ccc(OCc3ccccn3)cc2)cc1: Not met
- NCCCC[C@H](NC(=O)OCC1c2ccccc2-c2ccccc21)C(=O)Nc1ccc(CN)cc1: Met
